Tested on: RPMI-8226 leukemia
Test: NCI tumour cell line growth inhibition, 48 h
Where a SMILES comes first, the peptide text is derived from it. [ ]: non-standard residue; d: D form. ΔPro = O=C(O)[CH]1C=CCN1
measured property: TGI

// below: answered molecules
Cc1ccc(N)cc1[As]=[As]c1cc(N)ccc1C (stereo not given): 4.45 µM
Brc1ccccc2cc(-c3ccccc3)nc1-2: 29.7 µM
CN(C)c1ccc(/C=C(\C#N)c2cc3ccccc3[nH]2)cc1: 4.91 µM
O=C(O)CCC(NC(=O)c1ccc(Nc2cnc3cc(C(F)(F)F)ccc3n2)cc1)C(=O)O (stereo not given): > 100 µM

TGI recorded for this molecule, Cc1ccc(S(=O)(=O)OCOS(=O)(=O)c2ccc(C)cc2)cc1 , is > 100 µM

The reported value for O=C(NC1CC1)c1c(O)[nH]c(=S)[nH]c1=O in terms of TGI is > 100 µM

Lab note: CC(C)(C)[Si](C)(C)OCC1OC(n2cnc3c(=O)[nH]cnc32)CC1O (stereo not given) gave TGI of > 100 µM

TGI in this record for C/C(=N\NC(=O)c1ccncc1)c1sc(-n2nc(-c3ccccc3)cc2-c2ccccc2)nc1C : > 31.6 µM

// field: TGI; key: COc1ccc(Oc2nc3cc(N)cc(N)c3nc2-c2ccccc2)cc1 ; value = 71.4 µM

Measured TGI of O=C(O)C1C=CCN1C(=O)C1C=CCN1C(=O)C1C=CCN1 (stereo not given) (H-[ΔPro]-[ΔPro]-[ΔPro]-OH; configuration not given here) : > 100 µM

---

Test system: CAKI-1 renal
Test: NCI tumour cell line growth inhibition, 48 h
measured property: log10 TGI (log10 of the value in µM)
For clarity, the numbers are log10 values of TGI expressed in µM.

CC1=CC(=O)N(c2cccc3c(N4C(=O)C=C(C)C4=O)cccc23)C1=O: 1.14

Record C=CCn1c2ccccc2c2c3c(c4c5ccccc5n(CC=C)c4c21)C(=O)N(O)C3=O , field log10 TGI: 0.54

So for COC(=O)[C@]12CC[C@@H](C)[C@H](C)[C@@H]1C1=CC[C@@H]3[C@@]4(C)C(C=O)=C[C@@](C)(CO)[C@@H]4[C@H](O)C[C@@]3(C)[C@]1(C)CC2 , the logged log10 TGI turned out to be 1.23

Reported log10 TGI of CCN(CC)CCNc1ccc2ncn3c4ccc(OC)cc4c(=O)c1c23 : 1.32

Please fill in: log10 TGI reported for CN(C)NC1=C([N+](=O)[O-])C=NN(c2ccccc2)C1 = 0.56

log10 TGI reading for Cc1ccc(N)cc1[As]=[As]c1cc(N)ccc1C (configuration not stated) : 0.46

log10 TGI reading for CC(=O)NS(=O)(=O)c1ccc(NCc2cccc3c(=O)c4ccc(Cl)cc4oc23)cc1 : 1.84

According to the records, this compound COc1cccc(Nc2ncnc3cc(NC(=O)CCl)ccc23)c1 displays log10 TGI of 0.36

log10 TGI measured on O=C(Nc1ccncc1)C(=O)c1cn(S(=O)(=O)c2cccc(Cl)c2)c2ccccc12 = 1.60

---

List of GI50 values.
Test system: OVCAR-8 ovarian
Test: NCI tumour cell line growth inhibition, 48 h

Examples from the recorded data:
Oc1ccc2c(=S)cc(-c3ccc(Br)cc3)oc2c1O: 2280 nM
O=C1/C(=C\c2ccc(F)cc2)CN(C(=O)c2ccccc2F)C/C1=C\c1ccc(F)cc1: 1720 nM
C[C@@H](Nc1cc(F)cc(F)c1)c1cc(C(=O)N(C)C)cc2c(=O)cc(N3CCOCC3)oc12: 25500 nM

Okay, now this compound:
Observed GI50 on OVCAR-8 ovarian, entry Cn1c(CCCC(=O)O)nc2cc(N(CCCl)CCCl)ccc21 , equals > 91200 nM

---

Quick reference: TGI of the listed items.
Tested on: HOP-92 NSCLC
Assay: NCI tumour cell line growth inhibition, 48 h

Take a look at these entries with their results.
COC(=O)[C@@H]1C[C@@H](O)CN1C(=O)c1ccc([N+](=O)[O-])cc1[N+](=O)[O-]: > 100 µM
CCCCC(=O)/C=c1/cc(C)[nH]c2cccc3cnn1c32: > 100 µM
C=C1CN=C(Nc2ccc(Cl)cc2)S1: > 100 µM

Summary for this molecule, O=C1C=C(NCCO)c2nccc3c2c1nc1ccccc13 : TGI is > 100 µM

For O=C1/C(=C\c2ccc(F)cc2)CN(C(=O)c2ccccc2F)C/C1=C\c1ccc(F)cc1 the molecule record lists TGI as 5.63 µM

Value of TGI reported for the molecule O=c1[nH]c2c(c(=O)[nH]1)SC(c1ccccc1)C2 (stereo unspecified) is > 100 µM

---

Readings of TGI for the listed compounds
System: SK-MEL-2 melanoma
Experiment: NCI tumour cell line growth inhibition, 48 h

CC1(C)C(N2CCOCC2)CS1(=O)=O (configuration not stated): > 10 µM
CC1(C)CC[C@]2(C(=O)O)CC[C@]3(C)C(=CCC4=C5C[C@H](O)[C@H](O)[C@@](C)(CO)[C@@]5(C)CC[C@]43C)[C@@H]2C1: > 100 µM
CCc1n[nH]c(=O)n1CC: > 100 µM

Observed TGI on SK-MEL-2 melanoma, entry COCn1cc(C2=C(C)C(=O)C(C)=C(C)C2=O)cn1 , equals > 100 µM

GET /values?item= CCCC(=O)OCC1OC(n2cc(F)c(=O)[nH]c2=O)CC1O (configuration not stated) &system= SK-MEL-2 melanoma returns TGI: > 10 µM

Entry NC(=O)c1c(NC(=O)c2cccs2)sc2c1CCC(=O)C2 , SK-MEL-2 melanoma data, TGI value: 7.78 µM

Entry CC(C)(C)[Si](C)(C)OCC1OC(n2cnc3c(=O)[nH]cnc32)CC1O (configuration not stated) : TGI on SK-MEL-2 melanoma = > 100 µM

Case O=C(O)CCC(c1ccccc1)(c1ccccc1)c1ccccc1 , SK-MEL-2 melanoma, TGI recorded as > 84 µM

---

System: HL-60(TB) leukemia
Assay: NCI tumour cell line growth inhibition, 48 h; in the data active means GI50 below about 0.43 µM; inactive means the rest
Your response should consist of one outcome taken from 1.0 (active), 0.0 (inactive)

Sample answers from the record:
CCOc1cc(-c2nncn2C)ccc1Nc1ncc2cc(C)nc(NCC(C)(C)C)c2n1: 0.0
CCc1nc(C)cn1C(=O)OCc1nc2nc(Cl)nc(N3CCOCC3)c2[nH]1: 0.0
C#C[C@@]1(O)[C@@H](CO)O[C@@H](n2cc(Br)c3c(Cl)ccnc32)[C@@H]1O: 0.0
Cc1ccc(C[As+](c2ccccc2)(c2ccccc2)c2ccccc2)cc1: 1.0
COC(=O)[C@H](Cc1cn(C)cn1)NC(=O)[C@H](CC(=O)OCc1ccccc1)NC(=O)Nc1cc(C(F)(F)F)cc(C(F)(F)F)c1: 0.0

Q: # lookup: test call for C=C1c2nc3ccccc3n2C=C(c2cccc(Cl)c2)N1Cc1ccc(OC)cc1
Result: 1.0

Q: Test call for this molecule, please: O=C(Nc1ccncc1)C(=O)c1cn(S(=O)(=O)c2cccc(Cl)c2)c2ccccc12
Result: 0.0

Q: Please indicate how the test categorized Nc1ccccc1C#C/C=C\C#Cc1ccccc1C#CCO .
Result: 0.0

Q: Per the records of this test, what outcome belongs to COc1cccc2c1C(=O)c1c(O)c3c(c(O)c1C2=O)C[C@@](O)(/C(CO)=N/NC(=O)CCCCCN1C(=O)C=CC1=O)C[C@@H]3O[C@H]1C[C@H](N)[C@H](O)[C@H](C)O1 ?
Result: 0.0

Q: Each molecule tested received a call. Report the one for COc1ccc(Oc2nc3cc(N)cc(N)c3nc2-c2ccccc2)cc1 .
Result: 0.0

Q: Could you check what this test reported for COc1cccc(Nc2ncnc3cc(NC(=O)CCl)ccc23)c1 ?
Result: 0.0

Q: Tell me the assay call for NC(=O)c1c(NC(=O)c2cccs2)sc2c1CCC(=O)C2 please.
Result: 0.0

Q: // param item: Cc1nc2sc(C(=O)Nc3cccc(Br)c3C)c(N)c2cc1C(O)c1ccccc1 (stereo not given) ; yields the recorded call
Result: 1.0

Q: Answer briefly: the call reported for CN1CCN(CCCNC(=O)c2c3c(n4ccccc24)C(=O)c2ncccc2C3=O)CC1 in this assay.
Result: 0.0

Q: // param item: CN1CCC2(CC1)N=C(SCC(=O)Nc1cnc3ccccc3c1)C(c1ccc(Br)cc1)=N2 ; yields the recorded call
Result: 0.0

---

Test system: HOP-92 NSCLC
Assay: NCI tumour cell line growth inhibition, 48 h; in the data active means GI50 below about 0.43 µM; inactive means the rest
Answer with one of the outcomes active, inactive

The following molecules have reported results that may help.
c1ccc(-c2[nH]ncc2-c2ccnc(-c3ccc(OCCN4CCOCC4)cc3)c2)nc1: inactive
COc1cccc2c1C(=O)c1c(O)c3c(c(O)c1C2=O)C[C@@](O)(/C(CO)=N/NC(=O)CCCCCN1C(=O)C=CC1=O)C[C@@H]3O[C@H]1C[C@H](N)[C@H](O)[C@H](C)O1: active
NCCCNc1nc2ccccc2c2c(=O)c3cc(F)ccc3sc12: inactive
Nc1[nH]nc2nc(-c3cc(Cl)ccc3Cl)cc(-c3ccc(F)cc3)c12: inactive
Cc1ccc(/C=N/NC(=O)c2ccccc2Oc2ccccc2)o1: inactive
C=C1C(=O)O[C@H]2[C@H]1CC/C(COC(=O)c1cccnc1N)=C\CC[C@@]1(C)O[C@@H]21: active
Cc1sc(C(=O)c2cncnc2N[C@@H]2C[C@H](COS(N)(=O)=O)[C@@H](O)C2)cc1[C@@H]1NCCc2ccc(Cl)cc21: active
Cc1nc2sc(C(=O)Nc3cccc(Br)c3C)c(N)c2cc1C(O)c1ccccc1 (stereo not given): inactive
NC(=O)c1c(NC(=O)c2cccs2)sc2c1CCC(=O)C2: inactive
Cc1ccc(C[As+](c2ccccc2)(c2ccccc2)c2ccccc2)cc1: active

Q: Identify the outcome logged in this assay for the molecule shown: O=S(=O)(NC1=NCCN1C(=S)SN1CCn2c1nsc2=S)c1ccc(Oc2ccccc2)cc1
Result: inactive

Q: Record request — test call for Nc1ccccc1C#C/C=C\C#Cc1ccccc1C#CCO
Result: inactive

Q: What classification did Cn1c(CCCC(=O)O)nc2cc(N(CCCl)CCCl)ccc21 end up with in this test?
Result: inactive

Q: Call for entry CNC(=O)ON(C(C)=O)C(=O)NC :
Result: inactive

Q: # outcome recorded in this test, key = COC(=O)[C@]12CC[C@@H](C)[C@H](C)[C@@H]1C1=CC[C@@H]3[C@@]4(C)C(C=O)=C[C@@](C)(CO)[C@@H]4[C@H](O)C[C@@]3(C)[C@]1(C)CC2
Result: inactive

Q: What call does the record list for COC(=O)C1C(C(=O)O)C2(c3ccccc3)C(=O)C1(c1ccccc1)C(c1ccccc1)=C2c1ccccc1 (stereo not given) ?
Result: inactive

Q: Would you mind telling me which call this test gave Cn1ncc(C#N)c1-c1ccc2c(c1)CN([C@H](CN)Cc1cccc(F)c1)C2=O ?
Result: active

Q: Hi, sorry to bother you, what did the test record for COc1cc(-c2nn(-c3ccc(NC(=O)Nc4cc(C(F)(F)F)cc(C(F)(F)F)c4)cc3)cc2-c2ccncc2)ccc1Cl ?
Result: inactive

Q: In this assay, the call recorded for Oc1ccc2c(=S)cc(-c3ccc(Br)cc3)oc2c1O was what?
Result: inactive

Q: Each molecule tested received a call. Report the one for CCN1CCN(c2nc(C)cc(NCc3cc(Nc4ccnc5cc(Cl)ccc45)ccc3F)n2)CC1 .
Result: inactive
